System: OV-90 (Ovarian Carcinoma)
EXPERIMENT DESCRIPTION: combination Emax (second highest fraction inhibited in the dose matrix, 72 h); higher = more inhibition; extreme values may be limits of the assay
MEASURE: combination Emax
API note: the answer field is a bare number with no unit suffix.

What value of combination Emax has been recorded for this entry: COc1cccc(OCCCN)c1-c1cc(Nc2cnc(C#N)cn2)n[nH]1 [Prexasertib] + C[C@@H]1COCCN1C2=NC(=NC(=C2)C3(CC3)[S@](=N)(=O)C)C4=C5C=CNC5=NC=C4 [AZD6738] (first compound max 1 µM, 7x7, partner max 10 µM) 0.548

What value of combination Emax has been recorded for this entry: C=CCn1c(=O)c2cnc(Nc3ccc(N4CCN(C)CC4)cc3)nc2n1-c1cccc(C(C)(C)O)n1 [AZD1775] + C[C@@H]1COCCN1C2=NC(=NC(=C2)C3(CC3)[S@](=N)(=O)C)C4=C5C=CNC5=NC=C4 [AZD6738] (first compound max 1 µM, partner max 10 µM) 0.526

What value of combination Emax has been recorded for this entry: Cc1cc2ncnn2cc1Nc1ncc2c(n1)n(C1CCOCC1)c(=O)n2C [AZD7648] + CN(C)CCCOc1ccc(-c2ccc3ncc4c(c3c2)n(C2CCOCC2)c(=O)n4C)cn1 [AZD0156] (first compound max 10 µM, 7x7, partner max 1 µM) 0.216

What value of combination Emax has been recorded for this entry: COc1cccc(OCCCN)c1-c1cc(Nc2cnc(C#N)cn2)n[nH]1 [Prexasertib] + Cc1cc2ncnn2cc1Nc1ncc2c(n1)n(C1CCOCC1)c(=O)n2C [AZD7648] (first compound max 1 µM, 7x7, partner max 10 µM) 0.548

What value of combination Emax has been recorded for this entry: CN(CCO)CC[C@H](CSc1ccccc1)Nc1ccc(S(=O)(=O)NC(=O)c2ccc(N3CCC([C@@H](O)c4ccccc4-c4ccc(Cl)cc4)CC3)cc2)cc1S(=O)(=O)C(F)(F)F [AZD4320] + Cc1cc2ncnn2cc1Nc1ncc2c(n1)n(C1CCOCC1)c(=O)n2C [AZD7648] (first compound max 1 µM, 7x7, partner max 10 µM) 0.6

What value of combination Emax has been recorded for this entry: CN(CCO)CC[C@H](CSc1ccccc1)Nc1ccc(S(=O)(=O)NC(=O)c2ccc(N3CCC([C@@H](O)c4ccccc4-c4ccc(Cl)cc4)CC3)cc2)cc1S(=O)(=O)C(F)(F)F [AZD4320] + C1CN(CCC1(C(=O)N[C@@H](CCO)C2=CC=C(C=C2)Cl)N)C3=NC=NC4=C3C=CN4 [Capivasertib] (first compound max 1 µM, 7x7, partner max 3 µM) 0.717

What value of combination Emax has been recorded for this entry: CN(CCO)CC[C@H](CSc1ccccc1)Nc1ccc(S(=O)(=O)NC(=O)c2ccc(N3CCC([C@@H](O)c4ccccc4-c4ccc(Cl)cc4)CC3)cc2)cc1S(=O)(=O)C(F)(F)F [AZD4320] + C[C@@H](Nc1cc(F)cc(F)c1)c1cc(C(=O)N(C)C)cc2c(=O)cc(N3CCOCC3)oc12 [AZD8186] (first compound max 1 µM, 7x7, partner max 3 µM) 0.795

The origin of these recorded values is the supplement of paper PMC11061612.
